Target: HLA-B*58:01
Assay: IEDB peptide-MHC binding, purified MHC/direct/fluorescence; filed as Kd, often an IC50 or EC50 that approximates it; bounds were set here for any values at or beyond the usual limits of such assays
Details: source organism: Mycobacterium tuberculosis
measurement_label: Kd (nM)
Just the number please, in nM, no unit attached.

Q: Can you look up the measured Kd of `LTFLDCLYY` for me?
Result: 145

Q: Try the sequence `LSNAGSNNW`
Result: 48.6

###

Exercise: for every item that follows, state its recorded pKd.
Molecular target: HLA-A*11:01
Assay: IEDB peptide-MHC binding, purified MHC/direct/fluorescence; filed as Kd, often an IC50 or EC50 that approximates it; bounds were set here for any values at or beyond the usual limits of such assays
Details: source organism: Escherichia coli O157:H7
pKd: −log10 of the molar value.

Q: Can you look up the measured pKd of `YLFQWNDNV` for me?
Result: ≤ 4.70

Q: Try the sequence `GITGGHIPK`
Result: 7.00

Q: Try the sequence `EQRLIDICV`
Result: ≤ 4.70
